Entries and their measured Activity follow.
tested on: PC-3; assay: Induction of nitric oxide production in human PC-3 cells assessed as nitrite level at 100 uM measured after 12 to 48 hrs by Griess assay; assay type: functional; settings: time 12-48 hrs

chemical string | unit name | Activity
O=S(=O)(c1ccccc1)c1c(OCCCCCCO)no[n+]1[O-] | µM | 3.2
O=S(=O)(c1ccccc1)c1c(OCCCCCCCCCCCCO)no[n+]1[O-] | µM | 3.2
O=S(=O)(c1ccccc1)c1c(OCCCO)no[n+]1[O-] | µM | 3.2
COc1cc(/C=C/C(=O)N2CCC=CC2=O)cc(OC)c1OCCCOc1no[n+]([O-])c1S(=O)(=O)c1ccccc1 | µM | 23.5
COc1cc(/C=C/C(=O)N2CCC=CC2=O)cc(OC)c1OCCCCCCCCCCCCOc1no[n+]([O-])c1S(=O)(=O)c1ccccc1 | µM | 23.5
COc1cc(/C=C/C(=O)N2CCC=CC2=O)cc(OC)c1OCCCCCCOc1no[n+]([O-])c1S(=O)(=O)c1ccccc1 | µM | 23.5

---

Entries and their measured selectivity ratio follow.
assay: Selectivity index, ratio of IC50 for cytotoxicity against human MCF-10A cells to IC50 for cytotoxicity against human MCF7 cells; format: toxicity, cell-based; conditions: MCF-10A cells versus MCF7 cells, read-out: Ratio IC50
assay metric: selectivity ratio

chemical string | val
COc1cc(/C=C/C(=O)N2CCC=CC2=O)cc(OC)c1OCCCCCCOc1no[n+]([O-])c1S(=O)(=O)c1ccccc1 | 3.1
O=S(=O)(c1ccccc1)c1c(OCCCO)no[n+]1[O-] | 0.9
O=S(=O)(c1ccccc1)c1c(OCCCCCCO)no[n+]1[O-] | 0.9
COc1cc(/C=C/C(=O)N2CCC=CC2=O)cc(OC)c1OCCCOc1no[n+]([O-])c1S(=O)(=O)c1ccccc1 | 3
O=S(=O)(c1ccccc1)c1c(OCCCCCCCCCCCCO)no[n+]1[O-] | 3.4
COc1cc(/C=C/C(=O)N2CCC=CC2=O)cc(OC)c1OCCCCCCCCCCCCOc1no[n+]([O-])c1S(=O)(=O)c1ccccc1 | 15.7
COc1cc(/C=C/C(=O)N2CCC=CC2=O)cc(OC)c1OC | 1

---

assay: Cytotoxicity against human MCF-10A cells assessed as reduction in cell viability measured after 48 hrs by CCK-8 assay; type: toxicity, cell-based
Entries and their measured IC50 at 48 h follow.
assay metric: IC50 at 48 h (nM)

chemical string | val
O=S(=O)(c1ccccc1)c1c(OCCCO)no[n+]1[O-] | 1800
O=S(=O)(c1ccccc1)c1c(OCCCCCCO)no[n+]1[O-] | 1700
O=S(=O)(c1ccccc1)c1c(OCCCCCCCCCCCCO)no[n+]1[O-] | 14800

---

system: PC-3; experiment: Cytotoxicity against human PC-3 cells assessed as reduction in cell viability measured after 48 hrs by CCK-8 assay; type: functional, cell-based; settings: PC-3, 48 h
pIC50: −log10 of the molar value.

chemical string | pIC50
COc1cc(/C=C/C(=O)N2CCC=CC2=O)cc(OC)c1OC | 5.25
COc1cc(/C=C/C(=O)N2CCC=CC2=O)cc(OC)c1OCCCCCCCCCCCCOc1no[n+]([O-])c1S(=O)(=O)c1ccccc1 | 7.30
O=S(=O)(c1ccccc1)c1c(OCCCCCCO)no[n+]1[O-] | 5.42
COc1cc(/C=C/C(=O)N2CCC=CC2=O)cc(OC)c1OCCCOc1no[n+]([O-])c1S(=O)(=O)c1ccccc1 | 6.62
O=S(=O)(c1ccccc1)c1c(OCCCCCCCCCCCCO)no[n+]1[O-] | 6.89
O=S(=O)(c1ccccc1)c1c(OCCCO)no[n+]1[O-] | 5.14
COc1cc(/C=C/C(=O)N2CCC=CC2=O)cc(OC)c1OCCCCCCOc1no[n+]([O-])c1S(=O)(=O)c1ccccc1 | 6.89
